Biological target: Androgen receptor (Homo sapiens, UniProt P10275)
Sequence (P10275 whole entry): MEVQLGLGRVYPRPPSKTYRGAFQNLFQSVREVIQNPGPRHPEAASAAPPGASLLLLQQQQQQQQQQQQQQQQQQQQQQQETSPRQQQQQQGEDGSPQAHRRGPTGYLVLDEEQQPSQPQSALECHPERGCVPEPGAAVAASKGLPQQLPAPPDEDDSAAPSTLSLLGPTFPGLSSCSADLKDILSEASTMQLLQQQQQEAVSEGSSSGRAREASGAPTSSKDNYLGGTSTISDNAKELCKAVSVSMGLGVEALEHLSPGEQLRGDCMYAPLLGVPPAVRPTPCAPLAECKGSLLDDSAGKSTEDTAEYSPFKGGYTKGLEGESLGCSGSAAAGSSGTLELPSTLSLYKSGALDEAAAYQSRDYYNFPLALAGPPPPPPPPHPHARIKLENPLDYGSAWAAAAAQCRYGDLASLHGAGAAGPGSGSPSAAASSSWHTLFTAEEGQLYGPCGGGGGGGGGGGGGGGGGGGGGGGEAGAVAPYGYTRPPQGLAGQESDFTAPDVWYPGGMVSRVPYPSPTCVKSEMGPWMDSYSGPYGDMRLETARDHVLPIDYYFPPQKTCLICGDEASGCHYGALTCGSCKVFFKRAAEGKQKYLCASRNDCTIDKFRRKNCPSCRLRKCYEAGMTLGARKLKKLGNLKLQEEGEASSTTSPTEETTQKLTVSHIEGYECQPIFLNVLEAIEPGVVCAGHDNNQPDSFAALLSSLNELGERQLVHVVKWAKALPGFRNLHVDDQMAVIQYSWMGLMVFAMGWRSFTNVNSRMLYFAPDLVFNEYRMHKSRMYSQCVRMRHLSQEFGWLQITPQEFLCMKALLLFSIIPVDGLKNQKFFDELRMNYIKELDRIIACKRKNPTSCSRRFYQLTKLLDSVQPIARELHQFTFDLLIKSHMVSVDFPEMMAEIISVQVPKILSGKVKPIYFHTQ
Consider the cut-off 20 nM. If the recorded Ki is strictly smaller, the label is 1.0; if not, the label is 0.0.

- molecule: "O=c1cc(C(F)(F)F)c2cc3c(cc2[nH]1)OC[C@@H](C(F)(F)F)N3CC(F)(F)F"
  system: "Androgen receptor (Homo sapiens, UniProt P10275)"
  groupLabel: 0.0
- molecule: "O=c1cc(C(F)(F)F)c2cc3c(cc2[nH]1)OCC(C(F)F)N3CC(F)(F)F (racemic)"
  system: "Androgen receptor (Homo sapiens, UniProt P10275)"
  groupLabel: 1.0
- molecule: "O=c1cc(C(F)(F)F)c2cc3c(cc2[nH]1)OC[C@H](CO)N3CC(F)(F)F"
  system: "Androgen receptor (Homo sapiens, UniProt P10275)"
  groupLabel: 0.0

Determine whether this molecule shows Ki lower than 20 nM (ties excluded): O=c1cc(C(F)(F)F)c2cc3c(cc2[nH]1)OC[C@@H](CO)N3CC(F)(F)F
1.0

Just wondering, is Ki of O=c1cc(C(F)(F)F)c2cc3c(cc2[nH]1)OC[C@H](c1ccccc1)N3CC(F)(F)F below 20 nM?
0.0

Does O=c1cc(C(F)(F)F)c2cc3c(cc2[nH]1)OC[C@@H](c1ccccc1)N3CC(F)(F)F have Ki strictly under 20 nM?
1.0

Determine whether this molecule shows Ki lower than 20 nM (ties excluded): N#CCC1COc2cc3[nH]c(=O)cc(C(F)(F)F)c3cc2N1CC(F)(F)F (racemic)
1.0

Consider Cc1cccc([C@@H]2COc3cc4[nH]c(=O)cc(C(F)(F)F)c4cc3N2CC(F)(F)F)c1 . Does its Ki lie strictly below 20 nM?
1.0

Given the entry O=c1cc(C(F)(F)F)c2cc3c(cc2[nH]1)OC[C@@H](CF)N3CC(F)(F)F , would its reported Ki be below 20 nM?
0.0
